The measurements presented in this section are drawn from ChEMBL document CHEMBL1122240.

biological target: Alcohol dehydrogenase (Equus caballus, UniProt P00327+P00328); test: In vitro inhibition against horse liver alcohol dehydrogenase
Recorded metric: Ki (mM)

Past entries and their recorded results:
* C=C[S+]([O-])c1ccccc1 (stereo not drawn) | 0.5
* NNC(N)=S [THIOSEMICARBAZIDE] | 1.9
* NC(=O)CCCO | 6.8

[a] CC(C)CC[S+](C)[O-] (stereo not drawn)
[b] CC(C)(C)CC(N)=O
[c] O=C1CC[S+]([O-])CC1
[d] NC(=O)CCCCCO
[e] CC(C)CC(N)=O [ISOVALERAMIDE]
Problem: Order the entries by their reported Ki, beginning at the minimum. Reply with the labels, ordered as the question asks.
Solution: e, b, a, d, c

[A] [O-][S+]1CCCCC1
[B] NC(=O)CCCl
Problem: Field: lower Ki | Options: A / B Label of pick, please.
Solution: A

* * *

target: Alcohol dehydrogenase (Equus caballus, UniProt P00327+P00328); test: In vitro inhibition against horse liver alcohol dehydrogenase
Recorded metric: Ki (µM)

- NC(=O)C1CC1 [CYCLOPROPANECARBOXYLIC ACID AMIDE]: 790
- CC[S+](C)[O-] (stereo not drawn): 500
- NC(=O)CCO: 8500

[I] CC[S+]([O-])CC
[II] CC(C)C[S+](C)[O-] (stereo not drawn)
[III] [O-][S+]1CCNCC1
Problem: Could you please sort these 3 entries by Ki from high to low? Field: ranking. Enter the labels in the order requested.
Solution: III, I, II

[I] CC(C)C(N)=O [ISOBUTYRAMIDE]
[II] CC(C)C(=O)NN
[III] C[S+]([O-])Cc1ccccc1 (stereo not drawn)
[IV] CC[S+]([O-])c1ccccc1 (stereo not drawn)
Problem: rank_up(items): orders items by reported Ki in ascending numerical order. Field: ranking. Enter the labels in the order requested.
Solution: I, II, III, IV
(I: 220 µM, II: 2900 µM, III: 5000 µM, IV: 12500 µM)

[A] CCCCCC[S+](C)[O-] (stereo not drawn)
[B] NC(=O)CCCCO
Problem: When A and B are compared, which has the higher number for Ki? # reply format: chosen label
Solution: B

* * *

biological target: Alcohol dehydrogenase (Equus caballus, UniProt P00327+P00328); assay: In vitro inhibition against horse liver alcohol dehydrogenase
Recorded metric: Ki (mM)

// below: answered molecules
• CCCCCCCCCCCCCC[S+](C)[O-] (stereo unspecified) = 0.01
• NC(=O)C(F)(F)C(F)(F)C(F)(F)F [HEPTAFLUOROBUTYRAMIDE] = 2
• NC(N)=S = 42
• [O-][S+]1CCOCC1 = 10.6
• C[S+]([O-])c1ccccc1 (stereo unspecified) [METHYLPHENYLSULFOXIDE] = 0.2
• [O-][S+]1CCCC1 = 0.019

[A] COCC(N)=O [METHOXYACETAMIDE]
[B] O=C1CCCCN1
[C] NC(=O)CSCC(N)=O
[D] [O-][S+]1CCC1
[E] NC(=O)C(O)CCO (stereo unspecified)
Problem: Sort (5 molecules) by Ki: min first. Answer format: the labels, ordered as requested.
Solution: D, A, E, B, C
(D: 0.15 mM, A: 0.6 mM, E: 5.8 mM, B: 13 mM, C: 36 mM)
